system: 786-0 renal; test: NCI-60 one-dose screen, 48 h (100 = growth as untreated, 0 = no growth, -100 = all killed); conditions: 10 µM
This is part of a sample that, as a whole, favours compounds with a hit. Of some 83,000 tested, about 20% had one in any assay. Activity calls are given as the source filed them. The calls were made as follows: active = growth percent below 10; inactive = the rest.
measure: growth

{"compound": "CC1=C(c2cc(-c3ccc(Cl)cc3)c(C#N)c(N)n2)C(c2ccccc2)NC(=S)N1 (centres undefined)", "measurement target": "786-0 renal", "reported measurement": "67% (inactive)"}
{"compound": "Cn1cc(-c2cc(N)n3nc(-c4c[nH]c5ccc(Br)cc45)cc3n2)c2cccnc21", "measurement target": "786-0 renal", "reported measurement": "-80.2% (active)"}
{"compound": "Cc1ccc(-c2cc(-c3cc4ccccc4nc3Cl)[nH]c(=S)n2)cc1", "measurement target": "786-0 renal", "reported measurement": "74.3% (inactive)"}

Hi there! I need growth for each item below, if you can.
1. N#Cc1ccc(-c2nn(-c3ccc(C(=O)O)cc3)cc2CNc2cc(Cl)cc(Cl)c2)cc1
2. COc1ccc(N2N=C(c3ccc4c(c3)OCCO4)CC2c2cccc(NC(=O)CCCNS(=O)(=O)c3ccc(F)cc3)c2)cc1 (centres undefined)
3. C/C(=N\NC(N)=S)c1ccc(Nc2nc(SC(C)C)nc(-c3ccccc3)c2C#N)cc1
4. COc1ccc(/C(CSc2nnc(-c3c[nH]c4ccccc34)n2-c2ccccc2)=N/O)cc1
5. Cc1cccc2cc(-c3cc(-c4ccccc4)nc(=O)[nH]3)c(Cl)nc12

["36% (inactive)", "66.6% (inactive)", "18.2% (inactive)", "59.7% (inactive)", "91.6% (inactive)"]

====

system: IGROV1 ovarian; assay: NCI-60 one-dose screen, 48 h (100 = growth as untreated, 0 = no growth, -100 = all killed); conditions: 10 µM
This is part of a sample that, as a whole, favours compounds with a hit. Of some 83,000 tested, about 20% had one in any assay.
For each of the compounds below, state its growth.
One number for each entry, in %.

{"compound": "CN1C(=O)N(C)C2SC(N/N=C/c3ccc(F)cc3)=NC21 (stereo not drawn)", "growth, %": 46}
{"compound": "CC1(c2ccccc2)NC(=O)N(CC(=O)Nc2ccc(C(=O)/C=C/C=C/c3ccccc3)cc2)C1=O (stereo not drawn)", "growth, %": 86.5}
{"compound": "O=C(NO)c1ccc(CN2CCN(c3nc(-c4ccccc4)c4ccccc4n3)CC2)cc1", "growth, %": 17.8}

Go through the list and state growth for each entry.
1. COc1cc(/C=C/C(=O)c2ccc(F)cc2)ccc1Oc1nc(Nc2ccc(F)cc2)nc(N(C)C)n1
2. COc1cc(C2CC(c3ccc(C)cc3)=Nc3c(N)nc(N)nc3N2)ccc1Oc1nc(Nc2ccc(F)cc2)nc(N(C)C)n1 (stereo not drawn)
3. CN1CCN(c2ccc(Nc3nc(N4CCN(S(=O)(=O)c5ccc(Cl)cc5)CC4)c4sccc4n3)cc2)CC1
4. CC(=O)c1ccc(Nc2nc(SCCC(C)C)nc(-c3ccc(F)cc3)c2C#N)cc1

93.8
53.8
84.3
16

====

test system: CAKI-1 renal; test: NCI-60 one-dose screen, 48 h (100 = growth as untreated, 0 = no growth, -100 = all killed); conditions: 10 µM
About 83,000 compounds went through this panel and 20% of them were active in at least one assay; those are over-represented in the sample as a whole.
Outcome label depends on growth relative to 50%: at/above gives 1 (yes), below gives 0 (no).

{"compound structure": "CC(C)(C)Nc1nc2cc(Cl)c(Cl)cc2nc1S(C)(=O)=O", "group": "1 (yes)"}
{"compound structure": "O=c1oc2ccccc2cc1-c1csc(N=Nc2c(O)[nH]c3ccc(Br)cc23)n1", "group": "1 (yes)"}
{"compound structure": "O=C1Nc2ccc(Cl)cc2/C1=C/c1cccc(OCc2ccccn2)c1", "group": "0 (no)"}

API: above_or_equal(metric=growth, cutoff=50%) for item COc1ccc2c(c1)N=C(C(=O)O)/C2=C/c1sc(Nc2ccc(O)cc2)nc1O
1 (yes)

What do you get for Cc1ccc(/C=C(\C#N)n2nnc3c(F)cccc32)cc1 ?
0 (no)
